Measured Imax accompanies every entry in the list below.
- assay target: 5-hydroxytryptamine receptor 6 (Homo sapiens, UniProt P50406)
- Sequence (P50406 whole entry): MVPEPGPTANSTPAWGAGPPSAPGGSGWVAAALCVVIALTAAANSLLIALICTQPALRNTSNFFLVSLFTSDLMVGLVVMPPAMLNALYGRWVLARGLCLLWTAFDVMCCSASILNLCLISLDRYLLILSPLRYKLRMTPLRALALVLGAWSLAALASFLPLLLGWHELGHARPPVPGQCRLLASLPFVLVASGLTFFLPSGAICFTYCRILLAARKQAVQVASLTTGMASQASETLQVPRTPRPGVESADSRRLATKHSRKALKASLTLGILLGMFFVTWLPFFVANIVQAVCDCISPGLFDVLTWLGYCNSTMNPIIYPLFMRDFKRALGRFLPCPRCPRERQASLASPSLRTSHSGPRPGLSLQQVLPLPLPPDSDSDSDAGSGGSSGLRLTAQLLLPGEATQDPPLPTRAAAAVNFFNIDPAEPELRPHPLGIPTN
- measurement description: Antagonist activity at human 5HT6 expressed in HeLa cells assessed as intracellular cAMP level by radioimmunoassay
- Format: functional, cell-based
Dear colleague, please return just the value in %, with no unit written.

CN1CCCC(n2cc(S(=O)(=O)c3ccc(Cl)cc3)c3cccnc32)C1 (configuration not stated) = 63
CC(C)N1CCCC(n2cc(S(=O)(=O)c3cccc(Br)c3)c3cccnc32)C1 (configuration not stated) = 77
O=S(=O)(c1ccccc1F)c1cn(C2CCCNC2)c2ncccc12 (configuration not stated) = 100
O=S(=O)(c1ccc(Cl)cc1)c1cn(C2CCCNC2)c2ncccc12 (configuration not stated) = 76
CC(C)N1CCCC(n2cc(S(=O)(=O)c3ccc(Cl)cc3)c3cccnc32)C1 (configuration not stated) = 74

In plain terms, CCN1CCCC(n2cc(S(=O)(=O)c3ccccc3)c3cccnc32)C1 (configuration not stated) has a documented Imax of 58

In plain terms, CCN1CCCC(n2cc(S(=O)(=O)c3ccc(Cl)cc3)c3cccnc32)C1 (configuration not stated) has a documented Imax of 71

----------
Reported pKi values, 5-hydroxytryptamine receptor 6 (Homo sapiens).
The value called pKi is obtained by taking minus log10 of the concentration in mol/L.

Some solved cases for reference:
CCN1CCCC(n2cc(S(=O)(=O)c3ccc(Cl)cc3)c3cccnc32)C1 (configuration not stated) = 7.47
O=S(=O)(c1ccc(Cl)cc1)c1cn(C2CCCNC2)c2ncccc12 (configuration not stated) = 8.12
O=S(=O)(c1cccc(Cl)c1)c1cn(C2CCCNC2)c2ncccc12 (configuration not stated) = 8.89
O=S(=O)(c1cccc(F)c1)c1cn(C2CCNC2)c2ncccc12 (configuration not stated) = 8.57
CC(C)N1CCCC(n2cc(S(=O)(=O)c3cccc(Br)c3)c3cccnc32)C1 (configuration not stated) = 8.03
CN1CCCC(n2cc(S(=O)(=O)c3cc(Cl)cc(Cl)c3)c3cccnc32)C1 (configuration not stated) = 8.41
O=S(=O)(c1ccc(F)cc1)c1cn(C2CCNC2)c2ncccc12 (configuration not stated) = 8.07
CCN1CCC(n2cc(S(=O)(=O)c3cccc(Cl)c3)c3cccnc32)C1 (configuration not stated) = 8.48
CC(C)N1CCCC(n2cc(S(=O)(=O)c3cccc(F)c3)c3cccnc32)C1 (configuration not stated) = 8.47
O=S(=O)(c1ccccc1)c1cn(C2CCCNC2)c2ncccc12 (configuration not stated) = 8.31

Observed pKi, 5-hydroxytryptamine receptor 6 (Homo sapiens), O=S(=O)(c1cccc(F)c1)c1cn(C2CCCNC2)c2ncccc12 (configuration not stated) : 8.62

Observed pKi, 5-hydroxytryptamine receptor 6 (Homo sapiens), O=S(=O)(c1cccc(Cl)c1)c1cn(C2CCNC2)c2ncccc12 (configuration not stated) : 8.82

Observed pKi, 5-hydroxytryptamine receptor 6 (Homo sapiens), CN1CCCC(n2cc(S(=O)(=O)c3ccc(Cl)cc3)c3cccnc32)C1 (configuration not stated) : 7.94

Observed pKi, 5-hydroxytryptamine receptor 6 (Homo sapiens), CCN1CCC(n2cc(S(=O)(=O)c3cccc(F)c3)c3cccnc32)C1 (configuration not stated) : 8.08

Observed pKi, 5-hydroxytryptamine receptor 6 (Homo sapiens), CN1CCC(n2cc(S(=O)(=O)c3cccc(Cl)c3)c3cccnc32)C1 (configuration not stated) : 8.82

Observed pKi, 5-hydroxytryptamine receptor 6 (Homo sapiens), CCN1CCCC(n2cc(S(=O)(=O)c3c(Cl)nc4sccn34)c3cccnc32)C1 (configuration not stated) : 9.15

Observed pKi, 5-hydroxytryptamine receptor 6 (Homo sapiens), CCN1CCCC(n2cc(S(=O)(=O)c3ccc(Cl)s3)c3cccnc32)C1 (configuration not stated) : 8.49

Observed pKi, 5-hydroxytryptamine receptor 6 (Homo sapiens), O=S(=O)(c1cccc(Br)c1)c1cn(C2CCCNC2)c2ncccc12 (configuration not stated) : 8.42

Observed pKi, 5-hydroxytryptamine receptor 6 (Homo sapiens), O=S(=O)(c1ccc(Cl)s1)c1cn(C2CCCNC2)c2ncccc12 (configuration not stated) : 8.92

Observed pKi, 5-hydroxytryptamine receptor 6 (Homo sapiens), O=S(=O)(c1cccc(C(F)(F)F)c1)c1cn(C2CCCNC2)c2ncccc12 (configuration not stated) : 8.34

Observed pKi, 5-hydroxytryptamine receptor 6 (Homo sapiens), CN1CCC(n2cc(S(=O)(=O)c3ccccc3F)c3cccnc32)C1 (configuration not stated) : 8.25

Observed pKi, 5-hydroxytryptamine receptor 6 (Homo sapiens), CCN1CCC(n2cc(S(=O)(=O)c3ccccc3)c3cccnc32)C1 (configuration not stated) : 7.96

----------
- assay target: 5-hydroxytryptamine receptor 6 (Homo sapiens)
- measurement description: Agonist activity at human 5HT6 expressed in HeLa cells assessed as intracellular cAMP level by radioimmunoassay
pEC50: −log10 of the molar value.
Returns Fulfilled if the recorded pEC50 is greater than or equal to 7, and Not fulfilled otherwise.

O=S(=O)(c1cccc(F)c1)c1cn(C2CCNC2)c2ncccc12 (stereo not given) = Not fulfilled
CCN1CCCC(n2cc(S(=O)(=O)c3c(Cl)nc4sccn34)c3cccnc32)C1 (stereo not given) = Fulfilled
O=S(=O)(c1cccc(Br)c1)c1cn(C2CCNC2)c2ncccc12 (stereo not given) = Fulfilled
CCN1CCCC(n2cc(S(=O)(=O)c3ccc(Cl)s3)c3cccnc32)C1 (stereo not given) = Fulfilled
O=S(=O)(c1cc(Cl)cc(Cl)c1)c1cn(C2CCCNC2)c2ncccc12 (stereo not given) = Not fulfilled

(Q) Answer whether pEC50 of CN1CCCC(n2cc(S(=O)(=O)c3cccc(C(F)(F)F)c3)c3cccnc32)C1 (stereo not given) is greater than or equal to 7.
(A) Fulfilled

(Q) Answer whether pEC50 of O=S(=O)(c1ccccc1Cl)c1cn(C2CCCNC2)c2ncccc12 (stereo not given) is greater than or equal to 7.
(A) Fulfilled

----------
- assay target: 5-hydroxytryptamine receptor 6 (Homo sapiens, UniProt P50406)
- measurement description: Antagonist activity at human 5HT6 expressed in HeLa cells assessed as intracellular cAMP level by radioimmunoassay
- Type: functional, cell-based
Measured %max accompanies every entry in the list below.

O=S(=O)(c1ccc(Br)cc1)c1cn(C2CCNC2)c2ncccc12 (stereo not drawn) = 96%
O=S(=O)(c1cn(C2CCNC2)c2ncccc12)c1cccc2cccnc12 (stereo not drawn) = 100%
CN1CCC(n2cc(S(=O)(=O)c3ccccc3F)c3cccnc32)C1 (stereo not drawn) = 69%
CCN1CCC(n2cc(S(=O)(=O)c3cccc(F)c3)c3cccnc32)C1 (stereo not drawn) = 89%

Observed %max, 5-hydroxytryptamine receptor 6 (Homo sapiens, UniProt P50406), CN1CCC(n2cc(S(=O)(=O)c3ccc(F)cc3)c3cccnc32)C1 (stereo not drawn) : 85%

Observed %max, 5-hydroxytryptamine receptor 6 (Homo sapiens, UniProt P50406), CN1CCC(n2cc(S(=O)(=O)c3cccc(Cl)c3)c3cccnc32)C1 (stereo not drawn) : 85%

Observed %max, 5-hydroxytryptamine receptor 6 (Homo sapiens, UniProt P50406), CN1CCC(n2cc(S(=O)(=O)c3cccc(Br)c3)c3cccnc32)C1 (stereo not drawn) : 98%

Observed %max, 5-hydroxytryptamine receptor 6 (Homo sapiens, UniProt P50406), O=S(=O)(c1ccc(Cl)cc1)c1cn(C2CCNC2)c2ncccc12 (stereo not drawn) : 94%

Observed %max, 5-hydroxytryptamine receptor 6 (Homo sapiens, UniProt P50406), CN1CCC(n2cc(S(=O)(=O)c3ccc(Cl)cc3)c3cccnc32)C1 (stereo not drawn) : 98%

Observed %max, 5-hydroxytryptamine receptor 6 (Homo sapiens, UniProt P50406), CN1CCC(n2cc(S(=O)(=O)c3ccccc3Cl)c3cccnc32)C1 (stereo not drawn) : 91%

Observed %max, 5-hydroxytryptamine receptor 6 (Homo sapiens, UniProt P50406), O=S(=O)(c1ccccc1F)c1cn(C2CCNC2)c2ncccc12 (stereo not drawn) : 100%

Observed %max, 5-hydroxytryptamine receptor 6 (Homo sapiens, UniProt P50406), CCN1CCC(n2cc(S(=O)(=O)c3ccccc3)c3cccnc32)C1 (stereo not drawn) : 75%

Observed %max, 5-hydroxytryptamine receptor 6 (Homo sapiens, UniProt P50406), CCN1CCC(n2cc(S(=O)(=O)c3cccc(Cl)c3)c3cccnc32)C1 (stereo not drawn) : 93%

----------
- assay target: 5-hydroxytryptamine receptor 6 (Homo sapiens, UniProt P50406)
- measurement description: Agonist activity at human 5HT6 expressed in HeLa cells assessed as intracellular cAMP level by radioimmunoassay
recorded endpoint: EC50 (nM)
Dear colleague, please return just the value in nM, with no unit written.

CN1CCCC(n2cc(S(=O)(=O)c3ccc(Cl)s3)c3cccnc32)C1 (stereo not drawn) = 71
O=S(=O)(c1cccc(Br)c1)c1cn(C2CCCNC2)c2ncccc12 (stereo not drawn) = 72

--- query ---
Observed EC50, 5-hydroxytryptamine receptor 6 (Homo sapiens, UniProt P50406), CCN1CCCC(n2cc(S(=O)(=O)c3cc(Cl)cc(Cl)c3)c3cccnc32)C1 (stereo not drawn) : 67
